This collection of values is drawn from PubChem BioAssay.

assay: RPL19A-GFP modulators, yeast TOR pathway, confirmation, cell-based, S. cerevisiae, flow cytometry, cherry picks, mother/daughter gates (AID 2270); conditions: S. cerevisiae RPL19A-GFP strain, 3 h, measured here: mother cell gate, at 10 µM, stronger effect = lower value, 100 = same GFP as DMSO wells
endpoint.label: GFP response vs DMSO (%)
Numbers only, in %.

See these solved cases before continuing.
molecule=C=CCOc1cccc(C(=O)/C=C2/C(=O)Nc3ccccc32)c1 endpoint_label="GFP response vs DMSO" observed=98.8
molecule=COc1ccc(NC(=O)CCN2CCN(S(=O)(=O)c3cc(Cl)ccc3OC)CC2)cc1 endpoint_label="GFP response vs DMSO" observed=94.3
molecule="Cc1[nH]c2ccccc2c1C(c1ccccn1)N1CCC(C(N)=O)CC1 (stereo unspecified)" endpoint_label="GFP response vs DMSO" observed=96.6
molecule="COc1ccc(Cl)cc1C(Nc1cccnc1)c1ccc2cccnc2c1O (stereo unspecified)" endpoint_label="GFP response vs DMSO" observed=95.2
molecule=Cc1ccc(NC(=O)c2ccccc2)cc1 endpoint_label="GFP response vs DMSO" observed=100
molecule="CCCc1[nH]nc2c1C(c1ccccc1OC)C(C#N)=C(N)O2 (stereo unspecified)" endpoint_label="GFP response vs DMSO" observed=94.3
molecule=CS/C(N)=N/N=C/c1ccc2c(c1)OCO2 endpoint_label="GFP response vs DMSO" observed=97.7
molecule=N/C(Cc1ccc(Cl)c(Cl)c1)=N\OC(=O)c1cccs1 endpoint_label="GFP response vs DMSO" observed=83

Please give GFP response vs DMSO, item by item, for the list that follows.
1. Cc1cccc(OCCCSc2nc3ccc(C)cc3[nH]2)c1
2. COc1ccc(N2CCN(C(=O)C3CCCN(S(=O)(=O)c4ccc(C)cc4)C3)CC2)cc1 (stereo unspecified)
3. CCn1c2ccccc2c2cc(/C=N/n3cn[nH]c3=S)ccc21

[92.2, 93.4, 93.3]

* * *

assay: LAP4-GFP expression modulators in yeast, confirmation, cell-based, cherry picks, flow cytometry, mother/daughter gates (AID 2271);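 note: ratio of sample to DMSO plate mean so 100% equals DMSO level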; conditions: S. cerevisiae LAP4-GFP strain, 3 h, at 10 µM, stronger effect = higher value, 100 means same as DMSO control
endpoint.label: GFP response relative to DMSO (%)
Numbers only, in %.

molecule=Oc1ccc2ccccc2c1N=Nc1nccs1 endpoint_label="GFP response relative to DMSO" observed=163

Working through the 4 molecules below one at a time, give GFP response relative to DMSO for each.
1. Cc1nc2ccc(Br)cn2c1C(=O)N/N=C\c1ccccc1Cl
2. Cc1ccn2c(NC3CCCCC3)c(-c3cccc(-c4cccc(Cl)c4)c3)nc2c1
3. CCCCc1nnc(NC(=O)c2nc3nccc(C)n3n2)s1
4. O=C(Nc1ccccc1C(=O)O)c1ccccc1

1: 94.1; 2: 110; 3: 96.5; 4: 100

I need GFP response relative to DMSO for every entry listed below, if you could help.
1. C=CCn1c(=O)c(C(=O)NCCc2ccccc2)c(O)c2ccccc21
2. CCc1ccc(C(=O)/C=C/c2ccc([N+](=O)[O-])o2)cc1
3. CC1CCCN(CCCNC(=O)C2CCN(S(=O)(=O)N3CCC4(CC3)OCCO4)CC2)C1 (stereo unspecified)
4. O=[N+]([O-])c1cc(/C=N/O)ccc1Oc1ccccc1Cl
5. COc1ccc(N=Cc2nc(-c3ccccc3)oc2OC(=O)c2ccccc2)cc1
6. C=CCn1c(=O)c(C(=O)Nc2ccccc2C(=O)OCC)c(O)c2ccccc21
7. Cc1c(CC(C)C)nc(N)c(C#N)c1-c1ccccc1

90.2
146
97.9
146
108
87.2
94.2

* * *

assay: LAP4-GFP expression modulators in yeast, confirmation, cell-based, cherry picks, flow cytometry, mother/daughter gates (AID 2271);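 note: ratio of sample to DMSO plate mean so 100% equals DMSO level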; details: S. cerevisiae LAP4-GFP strain, 3 h, at 10 µM, 100 means same as DMSO control
The source made the active and inactive calls.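 The calls were made as follows: active = GFP response above 150% of the DMSO control; inconclusive = fewer than 70 events counted in any yeast strain; inactive = the rest.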
Choose one outcome from this list and give only that: active, inactive

Worked cases, answers included:
compound=CC(=O)Nc1ccc(NC(=O)c2nc(S(=O)(=O)Cc3cccc(C)c3)ncc2Cl)cc1 answer_label=inactive
compound=CSc1ccc(-c2cc(=O)c3ccccc3o2)cc1 answer_label=inactive
compound="Cc1cccc(C)c1NC(=O)C(Cl)C(=O)c1ccccc1 (stereo unspecified)" answer_label=active
compound=O=C1c2ccsc2SCCN1Cc1cccc(F)c1 answer_label=inactive
compound=CCN(CC)c1ccc(/C=C/c2ccc3ccc(OC)cc3[n+]2CC)cc1 answer_label=inactive

What did this assay record as the result for Cc1ccccc1NC(=O)c1ccccc1O ?
inactive

Same question for CC1=CC(=O)C(C(C)C)=C/C1=N/OS(=O)(=O)c1ccccc1 please.
active

One more compound: COc1ccc(N2CCN(C(=O)c3ccc(OCC4CCCO4)cc3)CC2)cc1 (stereo unspecified)
inactive

Next: CCOC(=O)CNc1c(-c2ccc(OC)cc2)nc2ccc(Cl)cn12
inactive

Then Cc1cccc(Sc2ccc([N+](=O)[O-])cn2)c1 ?
inactive

* * *

I'd appreciate it if you could supply GFP response, % of DMSO values for the items below.
experiment: modulators of AGP1-GFP expression in yeast TOR pathway, primary screen, cell-based, multiplex flow cytometry, S. cerevisiae (AID 1887); conditions: 3 h, at 10 µM, stronger effect = higher value;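 note: AGP1-GFP fusion strain of S. cerevisiae within a five-strain barcoded multiplex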
Inconclusive results are not listed.
One number for each entry, in %.

See these solved cases before continuing.
compound=C[N+](C)(C)CCOP(=O)(O)OP(=O)([O-])OC[C@H]1O[C@@H](n2ccc(N)nc2=O)[C@H](O)[C@@H]1O observed=102
compound=COc1ccccc1-c1ccc(/C=C2/C=C(CC(C)C)OC2=O)o1 observed=90.1
compound=CNCCC=C1c2ccccc2CCc2ccccc21 observed=102

Could you report GFP response, % of DMSO for every entry in the following list?
1. CN1C(=O)C(O)(CC(=O)c2ccccc2O)c2cc(Br)ccc21 (stereo not drawn)
2. CC(=O)NCCCCCCNC(C)=O
3. CCOc1ccc(CCn2c(-c3ccco3)nc3ccccc3c2=O)cc1OCC
4. C=CCc1cc(Cl)ccc1OCCOCCN(C)C
5. C[C@@H]1C[C@H]2[C@@H]3CCC4=CC(=O)C=C[C@]4(C)[C@@]3(F)[C@@H](O)C[C@]2(C)[C@@]1(O)C(=O)COP(=O)(O)O
6. COc1ccc(C2NC(=O)c3ccccc3N2)cc1OC (stereo not drawn)

106
106
92.6
88.5
93
92.2

List the reported GFP response, % of DMSO of each compound below.
1. O=C1OC(c2ccc(O)cc2)(c2ccc(O)cc2)c2ccccc21
2. COc1ccc(CCNC(=S)NC(=O)/C=C/c2ccc(C)cc2)cc1OC
3. O=C(O)c1cc(-c2ccc3c(c2)OCO3)nc2ccc(Br)cc12
4. CCCCC1C(=O)N(c2ccccc2)N(c2ccccc2)C1=O

1. 100
2. 95.4
3. 88.9
4. 97.5

Items follow; give GFP response, % of DMSO for each.
1. C/C(=N/N1CCN(Cc2cccc3ccccc23)CC1)c1cccnc1
2. CC1CNCCN1S(=O)(=O)c1cccc2cnccc12 (stereo not drawn)
3. c1ccc2c3c(c(CN4CCCCC4)cc2c1)COC3
4. COc1cccc(CN2CCN(C(=O)c3ccc(-c4ccccc4)cc3)CC2)c1
5. C=CCc1ccccc1OCC(O)CNC(C)C (stereo not drawn)
6. Cc1ccc(C(CC(=O)NCc2ccco2)c2ccc(OC(C)C)cc2)cc1 (stereo not drawn)
7. Cn1c2c(c(=O)[nH]c1=O)C(c1ccc(O)cc1)C1=C(N2)c2ccccc2C1=O (stereo not drawn)

1. 96.6
2. 91.3
3. 104
4. 98.8
5. 118
6. 96.9
7. 94.6

* * *

molecular target: Beta-adrenergic receptor kinase 1 (Homo sapiens); experiment: GRK2 binders displacing RNA aptamer, biochemical, validation, human GRK2, bead flow cytometry (AID 488806); details: bead-bound GRK2, FAM-aptamer displacement, at 10 µM, stronger effect = higher value
For each record, write down the corresponding aptamer binding inhibition.
Answers are plain numbers, in %.

compound=O=C(O)CCn1c(=S)n(CCC(=O)O)c2ccccc21 observed=4

I have 2 compounds here; please give me aptamer binding inhibition for each one.
1. CCn1c2ccccc2c2cc(CC(N)=O)ccc21
2. O=C(NCCN1CCCCC1)c1c(O)c2ccccc2[nH]c1=O

1: -1; 2: -4

* * *

assay: modulators of CIT2-GFP expression in yeast, confirmation, S. cerevisiae, GFP fusion, cherry picks, mother/daughter gates (AID 2274); conditions: S. cerevisiae CIT2-GFP strain, flow cytometry, 3 h; measured here: daughter cell gate; at 10 µM; stronger effect = higher value
endpoint.label: GFP response, % of DMSO (%)
Answers are plain numbers, in %.

compound=CCc1noc(C)c1C(=O)Nc1nc(-c2ccc(Cl)cc2Cl)c(C)s1 endpoint_label="GFP response, % of DMSO" observed=96.4

# return GFP response, % of DMSO for each item in the list
1. O=C(COc1ccccc1)N1CCN(c2ncnc3c2cnn3-c2ccccc2)CC1
2. CC(=O)c1ccc(Sc2ccccn2)c([N+](=O)[O-])c1
3. CCNC(=O)c1ccccc1-c1nc(-c2ccccc2Cl)no1
4. O=S(=O)(c1ccc(Cl)cc1)c1ccccn1
5. Cc1c(C)c2ccc(OCC(=O)NCCCn3ccnc3)cc2oc1=O
6. CCN(CC)Cc1csc2ccc(Br)cc12
7. CCc1ccc2c(c1)C1(NN=C(c3cccc4ccccc34)S1)C(=O)N2 (configuration not stated)
8. O=C(/C=C/c1ccccc1)Nc1ncn[nH]1

1: 103; 2: 103; 3: 99.3; 4: 101; 5: 101; 6: 96.5; 7: 99.3; 8: 100

Provide reported GFP response, % of DMSO for each item, in the same order as listed.
1. O=C(Nc1cc(F)c(Br)cc1F)c1ccc(Cl)cc1
2. COc1ccc(N2C(=O)C(Cl)=C(NCc3ccccc3)C2=O)cc1
3. CC1CCN(S(=O)(=O)c2cccc(C(=O)Nc3nccs3)c2)CC1

1: 94; 2: 92.3; 3: 105
